# PROCEDURE_TEXT: In vivo rat model: plasma anti Xa after buccal dosing of gel
# Parameters: species or system rat (Wistar preferred)
# TEST_CONDITIONS: Gel Formulation 11; enhancer 5 wt%; heparin 5 mg/rat

COMPOUND	promoting effect (P %)
CCCCCCCCCCCCOS(=O)(=O)[O-].[Na+] [Sodium dodecyl sulfate]	+189%
C[C@H](CCC(=O)NCCC[N+](C)(C)CCCS(=O)(=O)[O-])[C@H]1CC[C@H]2[C@@H]3[C@H](O)C[C@@H]4C[C@H](O)CC[C@]4(C)[C@H]3C[C@H](O)[C@]12C [CHAPS]	+2%
O=C1CCCN1 [Pyrrolidone]	-31%
C[C@H](CCC(=O)O)[C@H]1CC[C@H]2[C@@H]3CC[C@@H]4C[C@H](O)CC[C@]4(C)[C@H]3C[C@H](O)[C@]12C [Sodium deoxycholate]	+122%
